Where do the numbers come from? From ChEMBL document CHEMBL1146638.

This listing pairs molecules with measured IC50.
Test system: RPMI-8226
Test: Cytotoxicity against sensitive human myeloma 8226/S cells by MTT assay
Quick note: give the figure in µM, leave out the unit.

QUERY: Form: Entry = CC(=O)NC(CSCC1NC(=O)NC1=O)C(=O)O (centres undefined) | System = RPMI-8226 | IC50 = ____
RESULT: 56.3

New cases:
QUERY: // lookup IC50 | system=RPMI-8226 | key= CNC(=O)N1CC1C#N (centres undefined)
RESULT: 15.5

QUERY: Notebook entry, RPMI-8226 assay: IC50 of C[N+](C)(C)C(CSCC(C#N)NC(=O)Nc1ccccc1)C(=O)[O-] (centres undefined) = ?
RESULT: 44.9
